- target-or-test-system: Carnitine O-palmitoyltransferase 1, liver isoform (Homo sapiens, UniProt P50416)
- Sequence (P50416 whole entry, canonical isoform): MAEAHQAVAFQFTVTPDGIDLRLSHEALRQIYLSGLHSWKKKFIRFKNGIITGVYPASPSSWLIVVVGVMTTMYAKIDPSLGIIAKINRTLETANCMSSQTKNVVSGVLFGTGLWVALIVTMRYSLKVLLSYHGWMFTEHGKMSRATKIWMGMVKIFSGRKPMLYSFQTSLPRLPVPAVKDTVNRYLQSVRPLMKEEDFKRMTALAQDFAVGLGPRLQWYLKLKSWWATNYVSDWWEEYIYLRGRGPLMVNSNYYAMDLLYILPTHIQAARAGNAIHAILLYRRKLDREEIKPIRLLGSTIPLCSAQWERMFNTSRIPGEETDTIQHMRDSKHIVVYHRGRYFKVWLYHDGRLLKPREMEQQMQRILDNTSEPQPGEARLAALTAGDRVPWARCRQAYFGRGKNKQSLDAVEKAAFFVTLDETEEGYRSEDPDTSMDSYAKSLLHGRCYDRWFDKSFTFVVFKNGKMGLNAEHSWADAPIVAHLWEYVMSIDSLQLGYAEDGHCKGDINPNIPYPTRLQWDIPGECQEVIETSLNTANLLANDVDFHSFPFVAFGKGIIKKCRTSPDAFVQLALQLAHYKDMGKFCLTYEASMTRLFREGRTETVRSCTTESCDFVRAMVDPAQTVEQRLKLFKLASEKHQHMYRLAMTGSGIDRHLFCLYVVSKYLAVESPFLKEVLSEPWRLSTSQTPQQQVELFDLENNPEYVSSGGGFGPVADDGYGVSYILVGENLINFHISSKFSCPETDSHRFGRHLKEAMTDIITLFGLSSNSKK
- experiment-summary: Inhibition of human CPT1
Where a name gives a salt, the structure may show the parent alone.
property: IC50
Hi, when you answer, please include the unit after the number. Thanks!

Q: Recall the reported IC50 of COc1cccc2c1C(=O)c1c(O)c3c(c(O)c1C2=O)C[C@@](O)(C(=O)CO)C[C@@H]3O[C@H]1C[C@H](N)[C@H](O)[C@H](C)O1 [DOXORUBICIN HYDROCHLORIDE] on Carnitine O-palmitoyltransferase 1, liver isoform (Homo sapiens, UniProt P50416) and write it down.
A: 250 µM

====

- target-or-test-system: UniProt:Q96T53
- Sequence (Q96T53 whole entry): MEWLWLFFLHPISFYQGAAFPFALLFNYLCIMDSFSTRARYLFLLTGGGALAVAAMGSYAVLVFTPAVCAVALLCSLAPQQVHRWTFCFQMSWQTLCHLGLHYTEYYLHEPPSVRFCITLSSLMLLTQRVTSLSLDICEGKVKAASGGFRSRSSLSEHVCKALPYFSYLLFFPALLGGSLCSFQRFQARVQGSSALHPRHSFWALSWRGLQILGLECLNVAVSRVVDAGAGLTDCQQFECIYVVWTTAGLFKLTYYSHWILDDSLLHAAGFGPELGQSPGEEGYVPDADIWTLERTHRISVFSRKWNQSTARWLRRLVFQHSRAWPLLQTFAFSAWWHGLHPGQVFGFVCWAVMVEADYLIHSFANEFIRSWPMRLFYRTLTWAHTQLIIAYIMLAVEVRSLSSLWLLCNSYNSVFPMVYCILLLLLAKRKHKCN
- experiment-summary: Inhibition of GOAT (unknown origin)
property: IC50 (µM)
Give just the numeric value; µM need not be written.

Q: // fetch IC50 given entry "Cc1nc(N)c(CCC2CCN(C(=O)[C@H](C)NC(=O)c3ccnn3C)CC2)c(Cl)n1"
A: 0.06

====

- target-or-test-system: Protein-cysteine N-palmitoyltransferase HHAT (Homo sapiens)
- Sequence (Q5VTY9 whole entry): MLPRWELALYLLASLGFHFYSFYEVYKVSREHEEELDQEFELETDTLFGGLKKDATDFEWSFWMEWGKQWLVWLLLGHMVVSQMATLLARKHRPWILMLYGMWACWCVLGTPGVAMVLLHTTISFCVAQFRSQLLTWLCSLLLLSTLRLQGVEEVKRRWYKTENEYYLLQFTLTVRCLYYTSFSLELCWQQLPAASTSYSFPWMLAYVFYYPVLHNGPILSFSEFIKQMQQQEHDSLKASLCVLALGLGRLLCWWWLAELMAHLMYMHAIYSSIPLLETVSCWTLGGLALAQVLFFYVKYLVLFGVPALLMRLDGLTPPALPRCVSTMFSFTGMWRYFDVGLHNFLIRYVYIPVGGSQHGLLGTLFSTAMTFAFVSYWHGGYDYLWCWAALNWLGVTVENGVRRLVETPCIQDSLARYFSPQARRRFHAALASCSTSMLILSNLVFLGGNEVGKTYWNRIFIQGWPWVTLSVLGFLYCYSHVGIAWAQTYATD
- experiment-summary: Inhibition of HHAT (unknown origin)
property: IC50 (nM)
Give just the numeric value; nM need not be written.

Q: Recall the reported IC50 of CCC(C)CNCC(=O)N1CCc2sccc2C1c1cccc(C)c1 (stereo unspecified) on Protein-cysteine N-palmitoyltransferase HHAT (Homo sapiens) and write it down.
A: 460

====

- target-or-test-system: Serine palmitoyltransferase small subunit B (Homo sapiens, UniProt Q8NFR3)
- Sequence (Q8NFR3 whole entry): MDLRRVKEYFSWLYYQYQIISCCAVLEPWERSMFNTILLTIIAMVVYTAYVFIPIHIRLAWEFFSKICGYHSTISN
- experiment-summary: Inhibition of SPTSSB (unknown origin) expressed in HEK293T cells
property: pIC50
Worth noting: pIC50 values are minus log10 of concentrations stated in mol/L.

Q: // fetch pIC50 given entry "CC(C)=CCC[C@]1(C)C=Cc2c(O)c3c(c(CC=C(C)C)c2O1)O[C@]12C(=C[C@@H]4C[C@H]1C(C)(C)O[C@@]2(C/C=C(/C)C(=O)O)C4=O)C3=O"
A: 5.66

====

- target-or-test-system: Carnitine O-palmitoyltransferase 1, liver isoform (Homo sapiens, UniProt P50416)
- experiment-summary: Binding affinity to CPT1 (unknown origin) assessed as inhibition constant
property: pKi
Worth noting: pKi values are minus log10 of concentrations stated in mol/L.

Q: // fetch pKi given entry "CCCCCCCCCCCCCCNC(=O)N[C@H](CC(=O)[O-])C[N+](C)(C)C"
A: 6.44

====

- target-or-test-system: Carnitine O-palmitoyltransferase 1, liver isoform (Rattus norvegicus)
- Sequence (P32198 whole entry, canonical isoform): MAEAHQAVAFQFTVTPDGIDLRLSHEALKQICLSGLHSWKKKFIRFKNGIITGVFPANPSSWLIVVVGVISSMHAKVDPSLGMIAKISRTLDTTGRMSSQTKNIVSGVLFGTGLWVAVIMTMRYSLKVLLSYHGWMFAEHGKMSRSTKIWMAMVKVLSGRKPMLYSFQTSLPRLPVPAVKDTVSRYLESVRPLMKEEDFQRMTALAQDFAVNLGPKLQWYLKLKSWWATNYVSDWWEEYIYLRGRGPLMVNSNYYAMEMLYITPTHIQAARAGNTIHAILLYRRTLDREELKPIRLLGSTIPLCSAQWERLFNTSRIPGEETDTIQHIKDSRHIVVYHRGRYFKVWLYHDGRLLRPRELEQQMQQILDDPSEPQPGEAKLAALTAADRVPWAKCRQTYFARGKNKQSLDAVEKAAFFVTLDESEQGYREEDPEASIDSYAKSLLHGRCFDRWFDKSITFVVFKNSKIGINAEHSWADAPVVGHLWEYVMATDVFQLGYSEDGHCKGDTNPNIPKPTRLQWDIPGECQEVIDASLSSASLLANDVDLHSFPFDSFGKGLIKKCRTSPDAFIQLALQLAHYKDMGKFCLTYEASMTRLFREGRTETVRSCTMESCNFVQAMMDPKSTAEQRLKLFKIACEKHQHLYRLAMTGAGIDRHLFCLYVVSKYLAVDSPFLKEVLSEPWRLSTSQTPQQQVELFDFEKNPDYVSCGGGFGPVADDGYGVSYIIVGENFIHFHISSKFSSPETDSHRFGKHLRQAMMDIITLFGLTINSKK
- experiment-summary: Binding affinity to rat liver mitochondria CPT1 assessed as inhibition constant incubated for 3 to 6 mins by Liquid scintillation counting method
property: pKi
Worth noting: pKi values are minus log10 of concentrations stated in mol/L.

Q: // fetch pKi given entry CCCCCCCCCCCCCCCC1(O)C[C@H](CC(=O)[O-])C[N+](C)(C)C1 (single isomer, unassigned)
A: 5.38

====

- target-or-test-system: Protein-cysteine N-palmitoyltransferase HHAT (Homo sapiens)
- experiment-summary: Inhibition of His-tagged HHAT (unknown origin) transfected in HEK293FT cells
- Format: cell-based
property: pIC50
Worth noting: pIC50 values are minus log10 of concentrations stated in mol/L.

Q: Recall the reported pIC50 of C=CCNCC(=O)N1CCc2sccc2C1COc1ccc(Cl)c(C)c1 (stereo unspecified) on Protein-cysteine N-palmitoyltransferase HHAT (Homo sapiens) and write it down.
A: 6.74

====

- target-or-test-system: Palmitoyltransferase ZDHHC9 (Homo sapiens, UniProt Q9Y397)
- Sequence (Q9Y397 whole entry): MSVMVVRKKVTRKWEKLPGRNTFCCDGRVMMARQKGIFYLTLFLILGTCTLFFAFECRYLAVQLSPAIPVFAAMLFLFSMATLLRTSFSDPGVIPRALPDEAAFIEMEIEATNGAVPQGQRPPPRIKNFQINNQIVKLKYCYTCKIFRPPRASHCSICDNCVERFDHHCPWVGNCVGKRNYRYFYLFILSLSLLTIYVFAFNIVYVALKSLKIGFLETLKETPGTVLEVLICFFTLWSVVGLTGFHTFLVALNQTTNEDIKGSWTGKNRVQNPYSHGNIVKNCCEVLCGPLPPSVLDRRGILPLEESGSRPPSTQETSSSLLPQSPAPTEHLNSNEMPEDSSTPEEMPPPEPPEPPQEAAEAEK
property: Ki (µM)
Give just the numeric value; µM need not be written.

Q: // fetch Ki given entry CC(C)Cc1ccc(C(C)CN2CCNC[C@@H]2CCCCN2CCN(CC(C)c3ccc(CC(C)C)cc3)[C@@H](Cc3ccc(O)cc3)C2)cc1 (stereo partly specified)
A: 72
